tested on: COX-3 (Canis lupus familiaris, UniProt Q8HZR1, E597Q)
Construct: V5-His (vector name only); expressed in transfected cells; host or cells: Sf9 insect cells infected with recombinant baculovirus (pBlueBac 4.5/V5-His)
Sequence (Q8HZR1 1-633 isoform Q8HZR1-2 E627Q): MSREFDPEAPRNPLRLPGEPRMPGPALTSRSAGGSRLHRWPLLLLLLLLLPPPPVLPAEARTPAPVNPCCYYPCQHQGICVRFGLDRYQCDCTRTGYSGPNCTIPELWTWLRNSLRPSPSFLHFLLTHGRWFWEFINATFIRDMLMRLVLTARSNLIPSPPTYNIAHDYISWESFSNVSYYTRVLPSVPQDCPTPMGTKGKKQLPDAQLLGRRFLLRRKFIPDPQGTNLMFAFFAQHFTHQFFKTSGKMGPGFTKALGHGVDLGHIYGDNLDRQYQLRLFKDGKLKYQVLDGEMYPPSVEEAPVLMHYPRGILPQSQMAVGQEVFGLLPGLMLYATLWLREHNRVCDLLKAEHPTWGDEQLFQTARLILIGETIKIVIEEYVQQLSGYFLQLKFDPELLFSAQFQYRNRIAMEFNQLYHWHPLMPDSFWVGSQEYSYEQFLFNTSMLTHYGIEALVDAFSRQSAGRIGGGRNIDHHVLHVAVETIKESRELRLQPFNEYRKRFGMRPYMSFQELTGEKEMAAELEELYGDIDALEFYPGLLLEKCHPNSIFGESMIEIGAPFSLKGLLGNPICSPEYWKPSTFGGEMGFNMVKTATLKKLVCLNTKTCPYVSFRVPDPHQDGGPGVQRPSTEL
experiment description: COX activity (PGE2 formation by RIA) in insect cells expressing COX-3, drug inhibition
Assay type: cell-based, canine
protocol conditions: 30 μM arachidonic acid; insect cells, PGE2 by RIA; read-out: IC50, μM COX-3
Provide the reported IC50 of each item.

Cn1c(=O)c2c(ncn2C)n(C)c1=O [Caffeine]
> 1000 µM
CC(=O)Oc1ccccc1C(=O)O [Aspirin]
3.1 µM

Consider the additional compound presented here.
Exercise: Consider the compound shown here: O=C1CCC(N2C(=O)c3ccccc3C2=O)C(=O)N1 (stereo not drawn) [Thalidomide] What is its recorded IC50?
Solution: > 1000 µM
